Experiment: Bupivacaine concentrations in tear fluid after intracanalicular administration (LC/MS of Schirmer strip samples)
Format: in vivo, beagle dogs
Details: female, beagle, dog, other: intracanalicular, 160 μg, Day 2, N=3, intracanalicular Inventive Composition insert, read-out: Bupivacaine concentration in tear fluid, Maximum
Measure: concentration at 2 day (ng/mL)
Return type: number; implicit unit ng/mL.

# input Please look up its concentration at 2 day: CCCCN1CCCCC1C(=O)Nc1c(C)cccc1C (stereo not shown) [Bupivacaine, bupivacaine]
# output 770

====

Experiment: Bupivacaine concentrations in tear fluid after intracanalicular administration (LC/MS of Schirmer strip samples)
Format: in vivo, beagle dogs
Conditions: female, beagle, dog, other: intracanalicular, 160 μg, Day 1, N=3, intracanalicular Inventive Composition insert, read-out: Bupivacaine concentration in tear fluid, Median
Measure: concentration at 1 day
In your response, put the unit directly after the numeric value.

# input I am curious: what concentration at 1 day value has been reported for CCCCN1CCCCC1C(=O)Nc1c(C)cccc1C (stereo not shown) ?
# output 550 ng/mL

====

Experiment: Bupivacaine concentrations in tear fluid after intracanalicular administration (LC/MS of Schirmer strip samples)
Format: in vivo, beagle dogs
Conditions: female, beagle, dog, other: intracanalicular, 160 μg, Day 5, N=3, intracanalicular Inventive Composition insert, read-out: Bupivacaine concentration in tear fluid, Minimum
Measure: concentration at 5 day
Enter the number, and then the unit.

# input Need concentration at 5 day of CCCCN1CCCCC1C(=O)Nc1c(C)cccc1C (stereo not shown) [Bupivacaine, bupivacaine] , thanks.
# output 100 ng/mL

====

Experiment: Bupivacaine concentrations in tear fluid after intracanalicular administration (LC/MS of Schirmer strip samples)
Format: in vivo, beagle dogs
Conditions: female, beagle, dog, other: intracanalicular, 160 μg, Day 3, N=6, intracanalicular Inventive Composition insert, read-out: Bupivacaine concentration in tear fluid, Minimum
Method: Corneal wounds were created in both eyes (OU) of ten female beagle dogs on Day 0 using epithelial debridement. Animals were post-operatively monitored and treated with eye drops. […] Body weights were recorded prior to dosing and on Day 7. […] The PK portion of the study measured concentrations of bupivacaine released from the Inventive Composition into the tear fluid over 5 days following intracanalicular administration in beagle dogs and results are presented in Table 3. […]
Measure: concentration at 3 day (ng/mL)
Give just the number in ng/mL; leave the unit off.

# input Would you mind telling me what concentration at 3 day value was observed for CCCCN1CCCCC1C(=O)Nc1c(C)cccc1C (stereo not shown) [Bupivacaine, bupivacaine] ?
# output 100

====

Test: Bupivacaine concentrations in tear fluid after intracanalicular administration (LC/MS of Schirmer strip samples)
Format: in vivo, beagle dogs
Conditions: female, beagle, dog, other: intracanalicular, 160 μg, Day 1, N=3, intracanalicular Inventive Composition insert (approx. 160 μg bupivacaine), Groups 1 and 2, read-out: Bupivacaine concentration in tear fluid, Average
Measure: concentration at 1 day (ng/mL)
Numbers only; they are read as ng/mL.

# input Sample CCCCN1CCCCC1C(=O)Nc1c(C)cccc1C (stereo not shown) [Bupivacaine, bupivacaine] — what was its concentration at 1 day?
# output 780

====

Assay: Bupivacaine concentrations in tear fluid after intracanalicular administration (LC/MS of Schirmer strip samples)
Format: in vivo, beagle dogs
Settings: female, beagle, dog, other: intracanalicular, 160 μg, Day 4, N=6, intracanalicular Inventive Composition insert, read-out: Bupivacaine concentration in tear fluid, Minimum
Measure: concentration at 4 day (µg/mL)
Your answer is read as µg/mL, so omit the unit and give the number.

# input For CCCCN1CCCCC1C(=O)Nc1c(C)cccc1C (stereo not shown) , what is its reported concentration at 4 day?
# output 0.08

====

Test: Bupivacaine concentrations in tear fluid after intracanalicular administration (LC/MS of Schirmer strip samples)
Type: in vivo, beagle dogs
Details: female, beagle, dog, other: intracanalicular, 160 μg, Day 5, N=3, intracanalicular Inventive Composition insert, read-out: Bupivacaine concentration in tear fluid, Maximum
Measure: concentration at 5 day (ng/mL)
Field: numeric (ng/mL). Do not append units.

# input // lookup concentration at 5 day for CCCCN1CCCCC1C(=O)Nc1c(C)cccc1C (stereo not shown)
# output 430

====

Test: Bupivacaine concentrations in tear fluid after intracanalicular administration (LC/MS of Schirmer strip samples)
Type: in vivo, beagle dogs
Details: female, beagle, dog, other: intracanalicular, 160 μg, Day 2, N=3, intracanalicular Inventive Composition insert, read-out: Bupivacaine concentration in tear fluid, Minimum
Measure: concentration at 2 day (ng/mL)
Provide the reading as a plain figure in ng/mL.

# input Which concentration at 2 day reading was recorded for the compound CCCCN1CCCCC1C(=O)Nc1c(C)cccc1C (stereo not shown) [Bupivacaine, bupivacaine] ?
# output 150

====

Experiment: Bupivacaine concentrations in tear fluid after intracanalicular administration (LC/MS of Schirmer strip samples)
Format: in vivo, beagle dogs
Conditions: female, beagle, dog, other: intracanalicular, 160 μg, Day 4, N=6, intracanalicular Inventive Composition insert, read-out: Bupivacaine concentration in tear fluid, Average
Protocol: Corneal wounds were created in both eyes (OU) of ten female beagle dogs on Day 0 using epithelial debridement. Animals were post-operatively monitored and treated with eye drops. […] Body weights were recorded prior to dosing and on Day 7. […] The PK portion of the study measured concentrations of bupivacaine released from the Inventive Composition into the tear fluid over 5 days following intracanalicular administration in beagle dogs and results are presented in Table 3. […]
Measure: concentration at 4 day (ng/mL)
Kindly answer with a numeric value in ng/mL, unit omitted.

# input Item CCCCN1CCCCC1C(=O)Nc1c(C)cccc1C (stereo not shown) has what recorded concentration at 4 day?
# output 570

====

Assay: Bupivacaine concentrations in tear fluid after intracanalicular administration (LC/MS of Schirmer strip samples)
Assay type: in vivo, beagle dogs
Details: female, beagle, dog, other: intracanalicular, 160 μg, Day 3, N=6, intracanalicular Inventive Composition insert, read-out: Bupivacaine concentration in tear fluid, Median
Measure: concentration at 3 day (ng/mL)
Answer with a number only, understood to be in ng/mL.

# input What measured concentration at 3 day goes with CCCCN1CCCCC1C(=O)Nc1c(C)cccc1C (stereo not shown) [Bupivacaine, bupivacaine] ?
# output 590

====

Assay: Bupivacaine concentrations in tear fluid after intracanalicular administration (LC/MS of Schirmer strip samples)
Type: in vivo, beagle dogs
Settings: female, beagle, dog, other: intracanalicular, 160 μg, Day 5, N=3, intracanalicular Inventive Composition insert, read-out: Bupivacaine concentration in tear fluid, Average
Measure: concentration at 5 day (ng/mL)
Write the number in ng/mL without appending the unit.

# input Dear colleague, I am looking for the recorded concentration at 5 day of the following compound: CCCCN1CCCCC1C(=O)Nc1c(C)cccc1C (stereo not shown)
# output 250

====

Experiment: Bupivacaine concentrations in tear fluid after intracanalicular administration (LC/MS of Schirmer strip samples)
Assay type: in vivo, beagle dogs
Settings: female, beagle, dog, other: intracanalicular, 160 μg, Day 4, N=6, intracanalicular Inventive Composition insert, read-out: Bupivacaine concentration in tear fluid, Maximum
Measure: concentration at 4 day (ng/mL)
Answer in ng/mL, number only, no unit symbol.

# input Would you kindly share the measured concentration at 4 day for CCCCN1CCCCC1C(=O)Nc1c(C)cccc1C (stereo not shown) [Bupivacaine, bupivacaine] ?
# output 1180

====

Assay: Bupivacaine concentrations in tear fluid after intracanalicular administration (LC/MS of Schirmer strip samples)
Type: in vivo, beagle dogs
Conditions: female, beagle, dog, other: intracanalicular, 160 μg, Day 1, N=3, intracanalicular Inventive Composition insert, read-out: Bupivacaine concentration in tear fluid, Minimum
Measure: concentration at 1 day (ng/mL)
Enter your answer as a number in ng/mL; do not include the unit.

# input Requested field: concentration at 1 day. Item: CCCCN1CCCCC1C(=O)Nc1c(C)cccc1C (stereo not shown) [Bupivacaine, bupivacaine]
# output 280

====

Test: Bupivacaine concentrations in tear fluid after intracanalicular administration (LC/MS of Schirmer strip samples)
Format: in vivo, beagle dogs
Conditions: female, beagle, dog, other: intracanalicular, 160 μg, Day 5, N=3, intracanalicular Inventive Composition insert, read-out: Bupivacaine concentration in tear fluid, Median
Measure: concentration at 5 day

# input Need concentration at 5 day, item CCCCN1CCCCC1C(=O)Nc1c(C)cccc1C (stereo not shown)
# output 230 ng/mL

====

Test: Bupivacaine concentrations in tear fluid after intracanalicular administration (LC/MS of Schirmer strip samples)
Type: in vivo, beagle dogs
Settings: female, beagle, dog, other: intracanalicular, 160 μg, Day 2, N=3, intracanalicular Inventive Composition insert, read-out: Bupivacaine concentration in tear fluid, Average
Method: Corneal wounds were created in both eyes (OU) of ten female beagle dogs on Day 0 using epithelial debridement. Animals were post-operatively monitored and treated with eye drops. […] Body weights were recorded prior to dosing and on Day 7. […] The PK portion of the study measured concentrations of bupivacaine released from the Inventive Composition into the tear fluid over 5 days following intracanalicular administration in beagle dogs and results are presented in Table 3. […]
Measure: concentration at 2 day (ng/mL)
Respond with the bare value in ng/mL.

# input Consider the compound CCCCN1CCCCC1C(=O)Nc1c(C)cccc1C (stereo not shown) and give its measured concentration at 2 day.
# output 380
